Assay: Metabolic stability in rat whole blood assessed as compound remaining after 30 mins
Type: ADME, tissue-based
Settings: read-out: Activity
QUANTITY_KIND: remaining at 0.5 h (%)

Below, each entry is followed by its recorded remaining at 0.5 h result.
>>> endpoint_result("CC(C)(C)[C@@H](C#N)NC(=O)[C@@H](N)Cc1cccs1")
83
>>> endpoint_result("N#CC1(NC(=O)[C@@H](N)Cc2cccs2)CC1")
92
>>> endpoint_result("N#CCNC(=O)[C@@H](N)Cc1cccs1")
6
>>> endpoint_result("N#C[C@H](Cc1c[nH]c2ccccc12)NC(=O)[C@@H](N)Cc1cccs1")
0

I: CC(C)[C@@H](C#N)NC(=O)[C@@H](N)Cc1cccs1
II: N#C[C@H](Cc1ccccc1)NC(=O)[C@@H](N)Cc1cccs1
I need your help: which of the pair I , II has higher remaining at 0.5 h? In your reply, give the label of the chosen option. I

---

Biological target: Dipeptidyl peptidase 1 (Homo sapiens)
Assay: Inhibition of human recombinant cathepsin C
QUANTITY_KIND: IC50 (nM)

>>> endpoint_result("N#C[C@H](Cc1c[nH]c2ccccc12)NC(=O)[C@@H](N)Cc1cccs1")
5.8
>>> endpoint_result("N#C[C@]1(NC(=O)[C@@H]2C[C@H](F)CN2)C[C@H]1c1ccccc1")
2190
>>> endpoint_result("CC(C)[C@@H](C#N)NC(=O)[C@@H](N)Cc1cccs1")
215

A: N#C[C@H](Cc1nc2ccccc2s1)NC(=O)[C@@H](N)Cc1cccs1
B: N#CC1(NC(=O)[C@@H](N)Cc2cccs2)CC1
C: CS[C@@H]1CN[C@H](C(=O)N[C@H](C#N)Cc2ccccc2)C1
Task field, ranking: reported IC50, descending order. I'd appreciate it if you listed the labels in the requested order. C, B, A

---

The following compounds are shown together with reported clearance values.
Assay: Clearance in iv dosed rat
Assay type: ADME, organism-based
Conditions: in vivo

>>> endpoint_result("N#C[C@@]1(NC(=O)[C@@H](N)Cc2cccs2)C[C@@H]1c1ccccc1")
"35 mL/min/kg"
>>> endpoint_result("N#C[C@H](Cc1ccc(-c2ccccc2)s1)NC(=O)[C@@H](N)Cc1cccs1")
"> 100 mL/min/kg"
>>> endpoint_result("N#CC1(NC(=O)[C@@H](N)Cc2cccs2)CC1")
"113 mL/min/kg"
>>> endpoint_result("N#C[C@H](Cc1nc2ccccc2s1)NC(=O)[C@@H](N)Cc1cccs1")
"> 100 mL/min/kg"
>>> endpoint_result("N#C[C@H](Cc1ccccc1)NC(=O)[C@@H](N)Cc1cccs1")
"> 100 mL/min/kg"
>>> endpoint_result("N#C[C@H](Cc1ccc2ccccc2c1)NC(=O)[C@@H](N)Cc1cccs1")
"> 100 mL/min/kg"

Answer with the recorded clearance of N#C[C@@H](NC(=O)[C@@H](N)Cc1cccs1)C(c1ccccc1)c1ccccc1 only. > 100 mL/min/kg

---

Target: Dipeptidyl peptidase 1 (Homo sapiens, UniProt P53634)
Sequence (P53634 25-134 limits assumed): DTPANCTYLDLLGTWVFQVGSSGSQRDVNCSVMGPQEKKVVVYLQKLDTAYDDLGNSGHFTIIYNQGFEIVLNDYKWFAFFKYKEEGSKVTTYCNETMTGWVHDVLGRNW
Sequence (P53634 231-394 limits assumed): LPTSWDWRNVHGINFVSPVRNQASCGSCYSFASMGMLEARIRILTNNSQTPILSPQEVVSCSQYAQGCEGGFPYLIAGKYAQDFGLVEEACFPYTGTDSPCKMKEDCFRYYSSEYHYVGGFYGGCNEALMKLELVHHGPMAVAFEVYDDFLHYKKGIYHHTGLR
Sequence (P53634 395-463 limits assumed): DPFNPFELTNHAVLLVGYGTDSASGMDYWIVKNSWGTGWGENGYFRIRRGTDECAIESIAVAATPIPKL
Assay: Inhibition of human recombinant cathepsin C
QUANTITY_KIND: IC50 (nM)

// solved cases for IC50 follow
>>> endpoint_result("CO[C@@H]1CN[C@H](C(=O)N[C@H](C#N)Cc2ccccc2)C1")
1080
>>> endpoint_result("CCS[C@@H]1CN[C@H](C(=O)N[C@H](C#N)Cc2ccccc2)C1")
271
>>> endpoint_result("CC(C)(C#N)NC(=O)[C@@H](N)Cc1cccs1")
1420
>>> endpoint_result("N#C[C@H](Cc1ccccc1)NC(=O)[C@@H]1C[C@H](F)CN1")
133
>>> endpoint_result("CCSC[C@H](N)C(=O)N[C@H](C#N)Cc1c[nH]c2ccccc12")
630
>>> endpoint_result("N#C[C@@H](NC(=O)[C@@H](N)Cc1cccs1)C(c1ccccc1)c1ccccc1")
3.8
>>> endpoint_result("N#C[C@]1(NC(=O)[C@@H](N)Cc2cccs2)C[C@H]1c1ccccc1")
17

A: CS[C@@H]1CN[C@H](C(=O)N[C@H](C#N)Cc2ccc(-c3ccccc3)cc2)C1
B: N#CC1(NC(=O)[C@@H]2C[C@H](F)CN2)CC1
C: CS[C@@H]1CN[C@H](C(=O)NC2(C#N)CC2)C1
D: N#CCNC(=O)[C@@H](N)Cc1cccs1
E: C[C@@H]1CN[C@H](C(=O)N[C@H](C#N)Cc2ccccc2)C1
// ascending sort on recorded IC50 In your reply, arrange the labels in the requested order. A, D, C, B, E
(A: 1.7 nM, D: 17 nM, C: 336 nM, B: 880 nM, E: 2500 nM)

Every entry's value here was drawn from ChEMBL document CHEMBL1154218.
